Test: NCI Yeast Anticancer Drug Screen. Data for the bub3 strain (AID 167)
Details: S. cerevisiae bub3 mutant strain, hits give high values; at 50.0 µM unless noted
About 79,000 compounds went through this panel and 15% of them were active in at least one assay; those are over-represented in the sample as a whole.
Listed here: items and their measured growth inhibition.
measurement-label: growth inhibition (%)

1) CCCCCCC(O)C[N+](=O)[O-] (centres undefined) | -2.75
2) CC1=C(C(=O)CC(=O)C(=O)Nc2ccc(Cl)cc2C)Sc2ccccc2N1 | 6.7
3) O=C1OC(=O)C2=C1CCc1ccc3ccccc3c12 | 5.75
4) COc1cc(/C=C/C(=O)c2c(=O)o[nH][n+]2-c2ccccc2)ccc1[O-] | -1.85
5) CCCCOC(=O)c1ccccc1C(=O)Nc1ccccc1 | 4.4
6) Cc1nc(Nc2nc3ccccc3[nH]2)[nH]c(=O)c1CCO | 15.8
7) O=C1CCCC/C1=C/C=C/c1ccccc1 | -29.9
8) CC(=O)c1cccc(NC(=O)CCCCCCCCC(=O)Nc2cccc(C(C)=O)c2)c1 | -1.2
9) NC(C(=O)O)c1ccc(CBr)cc1 (centres undefined) | -1.6
10) CC1OC(Cl)CC(NC(=O)C(F)(F)F)C1OC(=O)C(F)(F)F (centres undefined) | 14.2
11) CN(C)Cc1ccccc1 | 11.1
12) CC(C)=NOc1ccccc1[N+](=O)[O-] | -13.2
13) COc1cccc(C(=O)C2N=NCC2c2ccccc2)c1 (centres undefined) | 61.5
14) CC1(C)CC2(Nc3ccccc3N2)C2=C(O1)C(=O)OC2 | -6.15
15) CC1CCC(c2cc(-c3ccccc3)n(-c3ccccc3)n2)CC1 (centres undefined) | -17.4
16) CCOC(=O)c1ccc(N(CCO)CCO)cc1 | 32.5
17) N#Cc1c(-c2ccc(Cl)cc2)c(-c2ccc(Cl)cc2)nn(CCOC(=O)CCC(=O)OCCn2nc(-c3ccc(Cl)cc3)c(-c3ccc(Cl)cc3)c(C#N)c2=O)c1=O | 4.75
18) O=C(CCC(=O)Nc1ccc(Cl)c(Cl)c1)Cc1nc2ccccc2o1 | -13.7
19) COc1ccc(N=N/C(=N/NC(=O)c2cc(Cl)ccc2C(=O)c2ccccc2)c2ccc(N(CCC#N)CCC#N)cc2C)cc1 | -11.9
20) C=C(NC(=O)C(c1ccccc1)c1ccccc1)C(=O)O | -1.9
21) CC(C)(C)OC(=O)N1CCC2(CC1)C(=O)NCN2c1ccccc1 | 0.7
22) CCN(CC)CCCCCCNc1cc(OC)c(OC)c2c(C)ccnc12 | -1.8
23) ClN(Cl)c1nc(-c2ccccc2)nc(N(Cl)Cl)n1 | 32.5
24) O=C(O)CN(CCO)CCN(CC(=O)O)CC(=O)O.[Fe+2] | -14.5
25) O=C1CCCC2CCCC(=O)N12 | 1
26) CCCNC(=O)Oc1ccccc1C(=O)NCO | 16.8
27) Cc1ccc(Cl)cc1NC(=O)c1ccccc1 | -18.1
28) COc1ccc(CC2c3cc(OC)c(OC)cc3CC[N+]2(C)C)cc1OC (centres undefined) | -1.65
29) COC(=O)CCC1(C)C2CCC1(C)/C(=N/O)C2 (centres undefined) | -21.1
30) CCCCOC/N=C(/N)NC#N | -4.1
31) CC1CCCC(CC(=O)O)(CC(=O)O)C1 (centres undefined) | -4.1
32) CC(=O)OCC1OC(OC(C)=O)C(NC(=O)c2ccccc2)C(OC(C)=O)C1OC(C)=O (centres undefined) | 17.4
33) CCCSc1nn2cc(NC(=O)OC)nc2s1 | 7.05
34) O=C(NCN1CCOCC1)NC(=O)NCN1CCOCC1 | 12.2
35) O=C(O)/C=C\C(=O)Nc1ccc2c(c1)Cc1cc(O)ccc1-2 | 21.9
36) O=[N+]([O-])c1ccc(S/N=C\c2ccccc2)c([N+](=O)[O-])c1 | 7.2
37) ClCCCSSCCCCl | 14.4
38) Cn1c2ccccc2c(=O)c2[nH]c3ccccc3c21 | 83.3
39) CC(=O)NS(=O)(=O)c1ccc(NC(=O)/C=C/C(=O)O)cc1 | -11.7
40) Cc1cc(=O)n2nc(CCl)sc2n1 | 11.3
41) O=[N+]([O-])c1ccccc1N1CCCCC1 | -4.05
42) OC(c1ccccc1)(c1ccccc1)C1/C(=C/c2ccccc2)C1Cc1ccccc1 (centres undefined) | -3.75
43) COc1ccc2cc3n(c(=O)c2c1OC)CCc1cc2c(cc1-3)OCO2 | 2.8
44) CC(Br)CCCBr (centres undefined) | -4.5
45) CCN(CC)c1ccc2cc(C(=O)Nc3ccccc3)c(=N)oc2c1 | -20.2
46) CC(C)=NNC(=O)c1ccc(N)cc1 | 22.1
47) O=C(CCl)NNC1=Nc2ccc(Cl)cc2SC1 | 5.8
48) COc1ccccc1N=Nc1c(O)n(-c2ccccc2OC)c(=S)n(-c2ccccc2)c1=O | -2.5
49) O=C1/C(=C/c2cccnc2)SC(=S)N1Cc1ccco1 | -6.45

Source of measurements: PubChem BioAssay (NCI)
